- System: KRAS Q61H (Homo sapiens (Human), UniProt P01116+P62937, Q61H)
- Sequence (P01116-2 other isoform, or with tags, fused parts or gaps Q61H): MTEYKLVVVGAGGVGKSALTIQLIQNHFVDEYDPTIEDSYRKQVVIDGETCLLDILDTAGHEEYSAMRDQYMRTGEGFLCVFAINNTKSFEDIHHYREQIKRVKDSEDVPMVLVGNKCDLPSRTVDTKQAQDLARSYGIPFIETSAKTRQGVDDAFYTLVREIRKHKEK
- Sequence (P62937 whole entry): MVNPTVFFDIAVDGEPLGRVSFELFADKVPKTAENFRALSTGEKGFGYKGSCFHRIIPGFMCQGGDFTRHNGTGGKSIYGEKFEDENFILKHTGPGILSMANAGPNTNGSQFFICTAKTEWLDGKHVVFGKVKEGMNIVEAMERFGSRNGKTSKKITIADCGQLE
- Assay explanation: Ras-Raf (BRAF RBD) disruption / FRET / MOA assay, KRAS Q61H
- Assay type: biochemical
- Cond: Ras-Raf disruption/FRET/MOA assay; class symbols; read-out: KRAS Q61H FRET data IC50
IC50 values, listed per item

Examples with their reported IC50 follow.
{"columns": ["Molecule", "Endpoint", "Result"],
 "data": [
  ["C=CC(=O)N1CC[C@H](C(=O)N(C)[C@H](C(=O)N[C@H]2Cc3cc(O)cc(c3)-c3ccc4c(c3)c(c(-c3cc(N5CC(OC)C5)ccn3)n4CC)CC(C)(C)COC(=O)[C@@H]3CCCN(N3)C2=O)C(C)C)C1 [Example A104]", "IC50", "100 to 1000 nM"],
  ["C=CC(=O)N1CCO[C@@H]2CN(C(=O)N(C)[C@H](C(=O)N[C@H]3Cc4nc(cs4)-c4ccc5c(c4)c(c(-c4cccnc4[C@H](C)OC)n5CC)CC(C)(C)COC(=O)[C@@H]4CCCN(N4)C3=O)C(C)C)C[C@H]21 (atropisomer, axis not shown) [Example A543]", "IC50", "10 to 100 nM"]
]}

Value lookup for IC50; key = C=CC(=O)N1CC(N(C)C(=O)N(C)[C@H](C(=O)N[C@H]2Cc3nc(cs3)-c3ccc4c(c3)c(c(-c3cccnc3[C@H](C)OC)n4CC(F)(F)F)CC(C)(C)COC(=O)[C@@H]3CCCN(N3)C2=O)C(C)C)C1 (atropisomer, axis not shown) [Example A711]
10 to 100 nM

Value lookup for IC50; key = C=CC(=O)N(C)[C@@H]1CCCN(C(=O)N(C)[C@H](C(=O)N[C@H]2Cc3nc(cs3)-c3ccc4c(c3)c(c(-c3cccnc3[C@H](C)OC)n4CC)CC(C)(C)COC(=O)[C@@H]3CCCN(N3)C2=O)C(C)C)C1 (atropisomer, axis not shown) [Example A382]
10 to 100 nM

* * *

- System: KRAS WT (Homo sapiens (Human), UniProt P01116+P62937)
- Sequence (P01116-2 other isoform, or with tags, fused parts or gaps, one chain of several): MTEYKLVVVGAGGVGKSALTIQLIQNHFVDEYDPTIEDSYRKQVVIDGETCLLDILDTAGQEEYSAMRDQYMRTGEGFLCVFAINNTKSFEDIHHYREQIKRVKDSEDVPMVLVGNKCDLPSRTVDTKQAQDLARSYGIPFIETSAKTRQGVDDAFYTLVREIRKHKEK
- Assay explanation: Ras-Raf (BRAF RBD) disruption / FRET / MOA assay, KRAS WT
- Type: biochemical
- Cond: read-out: IC50* KRAS WT FRET data
pIC50: −log10 of the molar value.
Endpoint: pIC50

Examples with their reported pIC50 follow.
{"columns": ["Compound", "Endpoint", "Result"],
 "data": [
  ["CCn1c(-c2cccnc2COC)c2c3cc(ccc31)-c1cccc(c1)C[C@H](NC(=O)[C@H](C(C)C)N(C)C(=O)[C@H]1CCN(C(=O)C#CCN(C)C)C1)C(=O)N1CCC[C@H](N1)C(=O)OCC(C)(C)C2 (atropisomer, axis not shown)", "pIC50", "5.00 to 6.00"],
  ["CCn1c(-c2cnccc2COC)c2c3cc(ccc31)-c1cc(O)cc(c1)C[C@H](NC(=O)[C@H](C(C)C)N(C)C(=O)[C@H]1CCN(C(=O)C(C)(C)N(C)C)C1)C(=O)N1CCC[C@H](N1)C(=O)OCC(C)(C)C2", "pIC50", "6.00 to 7.00"],
  ["C=CC(=O)N1CC[C@H](C(=O)N(C)[C@H](C(=O)N[C@H]2Cc3cccc(c3)-c3ccc4c(c3)c(c(-c3cc5c(nc3[C@H](C)OC)CCN(C)C5)n4CC)CC(C)(C)COC(=O)[C@@H]3CCCN(N3)C2=O)C(C)C)C1 (atropisomer, axis not shown)", "pIC50", "5.00 to 6.00"]
]}

Value lookup for pIC50; key = CCn1c(-c2cccnc2[C@H](C)OC)c2c3cc(ccc31)-c1cc(cc(C(F)F)c1)C[C@H](NC(=O)[C@H](C(C)C)N(C)C(=O)[C@H]1CCN(C(=O)C#CC(C)(C)N3CCC3)C1)C(=O)N1CCC[C@H](N1)C(=O)OCC(C)(C)C2 (atropisomer, axis not shown)
5.00 to 6.00

Value lookup for pIC50; key = C=CC(=O)N1CC[C@H](C(=O)N(C)[C@H](C(=O)N[C@H]2CC3=NN=C(S3)c3ccc4c(c3)c(c(-c3cccnc3[C@H](C)OC)n4CC)CC(C)(C)COC(=O)[C@@H]3CCCN(N3)C2=O)C(C)C)C1 (atropisomer, axis not shown)
< 5.00

Value lookup for pIC50; key = CCn1c(-c2cccnc2[C@H](C)OC)c2c3cc(ccc31)-c1cc(CF)cc(c1)C[C@H](NC(=O)[C@H](C(C)C)N(C)C(=O)[C@H]1CCN(C(=O)C#CC(C)(C)N(C)C)C1)C(=O)N1CCC[C@H](N1)C(=O)OCC(C)(C)C2 (atropisomer, axis not shown)
5.00 to 6.00

Value lookup for pIC50; key = CCn1c(-c2cccnc2[C@H](C)OC)c2c3cc(ccc31)N1CCO[C@@H](C[C@H](NC(=O)[C@@H](COC3CCN(C(=O)C#CC(C)(C)N(C)C)CC3)C(C)C)C(=O)N3CCC[C@H](N3)C(=O)OCC(C)(C)C2)C1 (atropisomer, axis not shown)
< 5.00

* * *

- System: K-Ras G13C (Homo sapiens (Human), UniProt P01116+P62937, G13C)
- Sequence (P01116-2 other isoform, or with tags, fused parts or gaps G13C): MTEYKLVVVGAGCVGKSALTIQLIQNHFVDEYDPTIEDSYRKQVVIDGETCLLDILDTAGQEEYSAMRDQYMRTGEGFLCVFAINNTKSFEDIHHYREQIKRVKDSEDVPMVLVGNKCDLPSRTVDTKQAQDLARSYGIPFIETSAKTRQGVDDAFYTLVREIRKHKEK
- Sequence (P62937 whole entry): as the sequence (P62937 whole entry) above
- Assay explanation: Ras-Raf (BRAF RBD) disruption / FRET / MOA assay, KRAS G13C
- Assay type: biochemical
- Cond: KRAS G13C; Ras-Raf disruption/FRET/MOA assay; read-out: IC50* KRAS G13C FRET data
IC50 values, listed per item

Examples with their reported IC50 follow.
{"columns": ["Compound", "Result"],
 "data": [
  ["CCn1c(-c2cccnc2[C@H](C)OC)c2c3cc(ccc31)-c1csc(n1)C[C@H](NC(=O)[C@H](C(C)C)N1CC[C@]3(CCN(C(=O)C#CC(C)(C)N(C)C)C3)C1=O)C(=O)N1CCC[C@H](N1)C(=O)OCC(C)(C)C2 (atropisomer, axis not shown)", "100 to 1000 nM"],
  ["C=CC(=O)N1C[C@H](F)[C@](F)(C(=O)N(C)[C@H](C(=O)N[C@H]2Cc3cccc(c3)-c3ccc4c(c3)c(c(-c3cccnc3[C@H](C)OC)n4CC)CC(C)(C)COC(=O)[C@@H]3CCCN(N3)C2=O)C(C)C)C1 (atropisomer, axis not shown)", "10 to 100 nM"],
  ["C=CC(=O)N1CCC12CCN(C(=O)N(C)[C@H](C(=O)N[C@H]1Cc3nc(cs3)-c3ccc4c(c3)c(c(-c3cccnc3[C@H](C)OC)n4CC)CC(C)(C)COC(=O)[C@@H]3CCCN(N3)C1=O)C(C)C)CC2 (atropisomer, axis not shown)", "100 to 1000 nM"],
  ["C=CC(=O)N1C[C@@H]2C[C@H]1CN2C(=O)N(C)[C@H](C(=O)N[C@H]1Cc2nc(cs2)-c2ccc3c(c2)c(c(-c2cccnc2[C@H](C)OC)n3CC)CC(C)(C)COC(=O)[C@@H]2CCCN(N2)C1=O)C(C)C (atropisomer, axis not shown)", "100 to 1000 nM"],
  ["C=CC(=O)N1CC[C@H](C(=O)N(C)[C@H](C(=O)N[C@H]2Cc3cccc(c3)-c3ccc4c(c3)c(c(-c3cccnc3[C@H](C)OC)n4CC#CC)CC(C)(C)COC(=O)[C@@H]3CCCN(N3)C2=O)C(C)C)C1 (atropisomer, axis not shown)", "1000 to 10000 nM"],
  ["C=CC(=O)N1CC[C@H](C(=O)N(C)[C@H](C(=O)N[C@H]2Cc3nc(cs3)-c3ccc4c(c3)c(c(-c3cccnc3[C@H](C)OC)n4CC(F)(F)F)CC(C)(C)COC(=O)[C@@H]3CCCN(N3)C2=O)C(C)C)C1 (atropisomer, axis not shown)", "100 to 1000 nM"]
]}

Below: the item to evaluate.
Value lookup for IC50; key = CCn1c(-c2cccnc2[C@H](C)OC)c2c3cc(ccc31)-c1csc(n1)C[C@H](NC(=O)[C@H](C(C)C)N(C)C(=O)[C@H]1CCN(C(=O)C#CC(C)(C)N(C)C)C1)C(=O)N1CCC[C@H](N1)C(=O)OCC(C)(C)C2 (atropisomer, axis not shown)
1000 to 10000 nM

* * *

- System: NRAS Q61R (Homo sapiens (Human), UniProt P01111+P62937, Q61R)
- Sequence (P01111 whole entry Q61R): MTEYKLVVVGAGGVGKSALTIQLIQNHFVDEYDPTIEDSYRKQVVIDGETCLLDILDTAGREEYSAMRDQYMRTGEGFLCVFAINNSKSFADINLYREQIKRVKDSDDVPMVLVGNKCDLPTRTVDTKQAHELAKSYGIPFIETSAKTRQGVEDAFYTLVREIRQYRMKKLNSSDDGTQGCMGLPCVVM
- Sequence (P62937 whole entry): as the sequence (P62937 whole entry) above
- Assay explanation: Ras-Raf (BRAF RBD) disruption / FRET / MOA assay, NRAS Q61R
- Format: biochemical
- Cond: NRAS Q61R; Ras-Raf disruption/FRET/MOA assay; read-out: IC50* NRAS Q61R FRET data
pIC50: −log10 of the molar value.
pIC50 values, listed per item

Examples with their reported pIC50 follow.
{"columns": ["Molecule", "pIC50"],
 "data": [
  ["C=CC(=O)N1C[C@@H](C)[C@H](N(C)C(=O)N(C)[C@H](C(=O)N[C@H]2Cc3nc(cs3)-c3ccc4c(c3)c(c(-c3cccnc3[C@H](C)OC)n4CC)CC(C)(C)COC(=O)[C@@H]3CCCN(N3)C2=O)C(C)C)C1 (atropisomer, axis not shown)", "5.00 to 6.00"],
  ["C=CC(=O)N1CCO[C@H]2CCN(C(=O)N(C)[C@H](C(=O)N[C@H]3Cc4nc(cs4)-c4ccc5c(c4)c(c(-c4cccnc4[C@H](C)OC)n5CC)CC(C)(C)COC(=O)[C@@H]4CCCN(N4)C3=O)C(C)C)C[C@H]21 (atropisomer, axis not shown)", "6.00 to 7.00"],
  ["C=CC(=O)N1CCO[C@H]2CN(C(=O)N(C)[C@H](C(=O)N[C@H]3Cc4cc(C(F)F)cc(n4)-c4ccc5c(c4)c(c(-c4cccnc4[C@H](C)OC)n5CC(F)(F)F)CC(C)(C)COC(=O)[C@@H]4CCCN(N4)C3=O)C(C)C)C[C@H]21 (atropisomer, axis not shown)", "5.00 to 6.00"]
]}

Below: the item to evaluate.
Form entry - test system: NRAS Q61R (Homo sapiens (Human), UniProt P01111+P62937, Q61R); read-out: pIC50; molecule: C=CC(=O)N1C[C@H]2CN(C(=O)N(C)[C@H](C(=O)N[C@H]3Cc4nc(cs4)-c4ccc5c(c4)c(c(-c4cccnc4[C@H](C)OC)n5CC)CC(C)(C)COC(=O)[C@@H]4CCCN(N4)C3=O)C(C)C)[C@H]2C1 (atropisomer, axis not shown)
6.00 to 7.00
